Cited source: patent US20160130224A1

assay: Conversion of prodrug to parent active compound in mouse plasma (LC-MS/MS); format: in vitro ADME; conditions: 37° C., 10 μM start, 15 min
Structures can show the parent of a compound that is named as a salt.
experimental.readout: [ ] (μM) Prodrug remaining, t15 min. (µM)
The reply should be a number in µM, with the unit left off.

// [ ] (μM) Prodrug remaining, t15 min. lookup, key: `COc1ccc(-n2c(C(=O)N(C)C)c(OC(=O)C(C)C)c(OC(=O)C(C)C)c2C(=O)N2CCN(C)CC2)cc1.Cl`
0.00

// [ ] (μM) Prodrug remaining, t15 min. lookup, key: `CCOC(=O)c1c(OC(=O)c2ccc(COP(=O)([O-])O)cc2)c(OC(=O)c2ccc(COP(=O)([O-])O)cc2)c(C(=O)N(C)C)n1-c1ccc(OC)cc1.[Na+].[Na+]`
4.53

// [ ] (μM) Prodrug remaining, t15 min. lookup, key: `COc1ccc(-n2c(C(=O)N(C)C)c(OC(=O)c3cccc(COP(=O)(O)O)c3)c(OC(=O)c3cccc(COP(=O)(O)O)c3)c2C(=O)N(C)C)cc1.[Na+].[Na+]`
2.05

// [ ] (μM) Prodrug remaining, t15 min. lookup, key: COc1ccc(-n2c(C(=O)N(C)C)c(OC(=O)C(C)(C)C)c(OC(=O)C(C)(C)C)c2C(=O)N2CCN(C)CC2)cc1 [UL6-004, hydrochloride]
10.00
